- condition_set: in sec-butanol, 298.15 K
observation_type: solubility (mole fraction)
Give the figure by itself; no unit, no explanation.

IN: Please report the recorded solubility (mole fraction) for `CC(=O)N[C@@H](CCC(N)=O)C(=O)O` .
OUT: 0.000501

---

- condition_set: in ethyl acetate, 293.15 K
observation_type: solubility (mole fraction)
Give the figure by itself; no unit, no explanation.

IN: Please report the recorded solubility (mole fraction) for `CC(=O)N[C@@H](CCC(N)=O)C(=O)O` .
OUT: 0.000186

---

- condition_set: in isobutanol, 313.15 K
observation_type: solubility (mole fraction)
Give the figure by itself; no unit, no explanation.

IN: Please report the recorded solubility (mole fraction) for `CC(=O)N[C@@H](CCC(N)=O)C(=O)O` .
OUT: 0.000587
